Molecular target: FKBP52 (FK1 domain) (Homo sapiens, UniProt Q02790)
Sequence (Q02790 50-138 limits assumed): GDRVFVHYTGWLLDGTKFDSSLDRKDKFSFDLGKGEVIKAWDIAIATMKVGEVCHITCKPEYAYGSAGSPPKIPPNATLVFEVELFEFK
Experiment: Fluorescence polarization assay, binding affinity to FKBP52 (FK1 domain)
Conditions: fluorescence polarization assay using tracer 2b; listed as 3*; read-out: FKBP52FK1 IC50
valueKind: pIC50
Field pIC50 (float): negative decimal logarithm of the concentration in molar.

Recorded pIC50 (compound `CC[C@@H]1CCCC[C@@]1(O)C(=O)C(=O)N1CCCC[C@H]1C(=O)O[C@H](CCc1ccc(OC)c(OC)c1)c1cccc(OCC(=O)O)c1` ): 5.02
